Target: N-type calcium channels (Cav2.2) (Rattus norvegicus (Rat))
Test: biochemical
Assay type: binding
Numbered stars: 1 amine (or outer) side, 2 acyl side, 3 side chain; on linkers, the order of the positions; unused ones are H or OH. Square brackets hold non-standard residues; d marks the D form. Peptide text beside a SMILES is read from it. * marks the point of attachment. Phe(3,4-(OMe)2) = COc1ccc(C[C@H](N)C(=O)O)cc1OC; Abu(4,4,4-F3) = N[C@@H](CC(F)(F)F)C(=O)O; Dab(3S-OH) = NC[C@H](O)[C@H](N)C(=O)O; ΔZArg = N=C(N)NCC/C=C(\N)C(=O)O; aThr = C[C@H](O)[C@H](N)C(=O)O; X2 = CC=C(N[*:1])C(=O)[*:2]; dOrn = NCCC[C@@H](N)C(=O)O; NH(CH2)4NH2 = NCCCCN*

compound	IC50
C[C@H](NC(=O)[C@@H](NC(=O)[C@@H](N)CCCCN)[C@@H](O)CN)C(=O)NCC(=O)N[C@H](CCCN)C(=O)N1CCC[C@H]1C(=O)N[C@@H](CC(F)(F)F)C(=O)N[C@@H](CCCCN)C(=O)N/C(=C\CCNC(=N)N)C(=O)O [24.109] (H-K[Dab(3S-OH)]AG[dOrn]P[Abu(4,4,4-F3)]K[ΔZArg]-OH)	> 0.3 µM
C[C@H](O)[C@H](NC(=O)[C@@H](NC(=O)[C@@H](N)CCCCN)[C@@H](O)CN)C(=O)NCC(=O)N[C@H](CCCN)C(=O)N1CCC[C@H]1C(=O)N[C@@H](Cc1cnc[nH]1)C(=O)N[C@@H](CCCCN)C(=O)N/C(=C\CCNC(=N)N)C(=O)N[C@@H](CCCCN)C(=O)NCCCCN [25.1] (H-K[Dab(3S-OH)][aThr]G[dOrn]PHK[ΔZArg]K-{NH(CH2)4NH2})	< 0.03 µM
CC=C(NC(=O)[C@H](CCCCN)NC(=O)[C@H](Cc1cnc[nH]1)NC(=O)[C@@H]1CCCN1C(=O)[C@@H](CCCN)NC(=O)CNC(=O)[C@@H](NC(=O)[C@@H](NC(=O)[C@@H](N)CCCCN)[C@@H](O)CN)[C@@H](O)CN)C(=O)N[C@@H](CCCCN)C(=O)NCCCCN [22.15] (H-K[Dab(3S-OH)][Dab(3S-OH)]G[dOrn]PHK[X2]K-{NH(CH2)4NH2})	< 0.03 µM
COc1ccc(C[C@H](NC(=O)[C@@H]2CCCN2C(=O)[C@@H](CCCN)NC(=O)CNC(=O)[C@H](C)NC(=O)[C@@H](NC(=O)[C@@H](N)CCCCN)[C@@H](O)CN)C(=O)N[C@@H](CCCCN)C(=O)N/C(=C\CCNC(=N)N)C(=O)O)cc1OC [24.85] (H-K[Dab(3S-OH)]AG[dOrn]P[Phe(3,4-(OMe)2)]K[ΔZArg]-OH)	> 0.3 µM
C[C@H](NC(=O)[C@@H](NC(=O)[C@@H](N)CCCCN)[C@@H](O)CN)C(=O)NCC(=O)N[C@H](CCCN)C(=O)N1CCC[C@H]1C(=O)N[C@@H](CC(N)=O)C(=O)N[C@@H](CCCCN)C(=O)N/C(=C\CCNC(=N)N)C(=O)O [24.112] (H-K[Dab(3S-OH)]AG[dOrn]PNK[ΔZArg]-OH)	> 0.3 µM
